Provide the recorded pIC50 for the entries that follow.
target: Butyrylcholinesterase (Equus caballus); assay: Inhibitory activity against BuChE from horse serum
Sequence (Q9N1N9 whole entry): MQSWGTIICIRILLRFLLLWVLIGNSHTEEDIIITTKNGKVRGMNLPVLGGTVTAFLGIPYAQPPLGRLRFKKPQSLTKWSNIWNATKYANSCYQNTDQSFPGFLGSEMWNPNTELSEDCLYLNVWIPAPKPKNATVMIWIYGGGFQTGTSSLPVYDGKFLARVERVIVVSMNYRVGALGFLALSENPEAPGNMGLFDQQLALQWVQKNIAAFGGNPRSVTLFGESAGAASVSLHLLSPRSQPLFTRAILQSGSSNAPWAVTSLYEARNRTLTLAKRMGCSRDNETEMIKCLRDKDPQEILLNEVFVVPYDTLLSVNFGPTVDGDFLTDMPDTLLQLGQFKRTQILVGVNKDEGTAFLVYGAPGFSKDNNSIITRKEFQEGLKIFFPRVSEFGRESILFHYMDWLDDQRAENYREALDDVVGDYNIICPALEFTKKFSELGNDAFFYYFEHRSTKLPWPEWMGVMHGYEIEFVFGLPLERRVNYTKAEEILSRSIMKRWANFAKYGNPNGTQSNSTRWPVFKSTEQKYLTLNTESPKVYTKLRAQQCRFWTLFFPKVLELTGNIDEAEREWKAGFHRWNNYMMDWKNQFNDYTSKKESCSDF
Scale: pIC50 equals -log10([C]), with [C] in mol/L.

Briefly, pIC50 measured for CC[C@H](C[C@@H](O)[C@@H](C)[C@H]1CCC2C3CC=C4C[C@@H](O)C[C@H](O)[C@]4(C)C3CC[C@@]21C)C(C)C (stereo partly drawn) [HALOXYSTEROL A] : 5.33

Briefly, pIC50 measured for CCC(CC[C@@H](C)[C@H]1CC[C@H]2C3=CC(O)C4(O)C[C@@H](O)CC[C@]4(C)[C@H]3CC[C@]12C)C(C)C (stereo partly drawn) : 5.70

Briefly, pIC50 measured for CC[C@H](C[C@@H](O)[C@@H](C)[C@H]1CC[C@H]2[C@@H]3C[C@@H](O)[C@@]4(O)C[C@@H](O)C[C@H](O)[C@]4(C)[C@H]3CC[C@]12C)C(C)C : 5.60

Briefly, pIC50 measured for CC[C@H](C[C@@H](O)[C@@H](C)[C@H]1CCC2C3CCC4=CC(=O)CC[C@]4(C)C3=CC[C@@]21C)C(C)C (stereo partly drawn) [HALOXYSTEROL C] : 4.75

Briefly, pIC50 measured for CC[C@H](/C=C/[C@@H](C)[C@H]1CC[C@@H]2[C@]1(C)CC=C1[C@]23C=C[C@]2(C[C@@H](O)CC[C@]12C)OO3)C(C)C : 5.16

Briefly, pIC50 measured for CC[C@H](CC[C@@H](C)[C@H]1CC[C@H]2[C@@H]3CCC4=C[C@@H](O)CC[C@]4(C)[C@H]3CC[C@]12C)C(C)C [LAWSARITOL] : 5.41

Briefly, pIC50 measured for CC[C@H](/C=C/[C@@H](C)[C@H]1CC[C@H]2[C@@H]3C=CC4C[C@@H](O)CC[C@]4(C)C3=CC[C@]12C)C(C)C (stereo partly drawn) : 5.35

Briefly, pIC50 measured for CC[C@H](C[C@@H](O)[C@@H](C)[C@H]1CCC2C3C=CC4=C[C@@H](O)C[C@H](O)[C@]4(C)C3CC[C@@]21C)C(C)C (stereo partly drawn) [HALOXYSTEROL B] : 5.64

###

The following compounds have recorded pKi on Acetylcholinesterase (Electrophorus electricus, UniProt O42275).
Sequence (O42275 whole entry): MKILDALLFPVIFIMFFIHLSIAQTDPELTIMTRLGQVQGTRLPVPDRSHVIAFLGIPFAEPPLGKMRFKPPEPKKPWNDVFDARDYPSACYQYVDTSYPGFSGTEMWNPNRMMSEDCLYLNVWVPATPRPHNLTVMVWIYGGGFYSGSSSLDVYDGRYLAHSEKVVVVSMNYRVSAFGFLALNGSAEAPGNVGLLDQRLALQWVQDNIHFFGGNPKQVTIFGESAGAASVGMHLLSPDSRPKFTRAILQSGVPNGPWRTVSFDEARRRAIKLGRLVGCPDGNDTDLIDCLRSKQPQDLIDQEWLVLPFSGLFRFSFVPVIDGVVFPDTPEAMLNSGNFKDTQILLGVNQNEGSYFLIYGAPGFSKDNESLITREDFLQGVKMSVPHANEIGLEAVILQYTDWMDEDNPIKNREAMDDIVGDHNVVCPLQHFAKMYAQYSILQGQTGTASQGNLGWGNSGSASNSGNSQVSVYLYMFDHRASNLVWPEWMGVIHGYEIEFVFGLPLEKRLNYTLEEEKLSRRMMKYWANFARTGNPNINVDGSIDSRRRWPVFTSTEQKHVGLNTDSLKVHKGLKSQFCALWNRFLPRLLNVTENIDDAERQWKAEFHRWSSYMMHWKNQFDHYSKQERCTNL
Scale: pKi equals -log10([C]), with [C] in mol/L.

Briefly, pKi measured for CC[C@H](C[C@@H](O)[C@@H](C)[C@H]1CC[C@H]2[C@@H]3C[C@@H](O)[C@@]4(O)C[C@@H](O)C[C@H](O)[C@]4(C)[C@H]3CC[C@]12C)C(C)C : 4.77

Briefly, pKi measured for CC[C@H](/C=C/[C@@H](C)[C@H]1CC[C@@H]2[C@]1(C)CC=C1[C@]23C=C[C@]2(C[C@@H](O)CC[C@]12C)OO3)C(C)C : 4.59

Briefly, pKi measured for CC[C@H](C[C@@H](O)[C@@H](C)[C@H]1CCC2C3CCC4=CC(=O)CC[C@]4(C)C3=CC[C@@]21C)C(C)C (stereo partly drawn) [HALOXYSTEROL C] : 5.96

###

target: Acetylcholinesterase (Electrophorus electricus); assay: Inhibitory activity against AChE from electric eel
Provide the recorded Ki for the entries that follow.
Number in µM, nothing else.

Briefly, Ki measured for CCC(CC[C@@H](C)[C@H]1CC[C@H]2[C@@H]3C=CC4(O)C[C@@H](O)CC[C@]4(C)[C@H]3CC[C@]12C)C(C)C (stereo partly specified) : 4

Briefly, Ki measured for CC[C@H](C[C@@H](O)[C@@H](C)[C@H]1CCC2C3C=CC4=C[C@@H](O)C[C@H](O)[C@]4(C)C3CC[C@@]21C)C(C)C (stereo partly specified) : 0.85

Briefly, Ki measured for CCC(CC[C@@H](C)[C@H]1CC[C@H]2C3=CC(O)C4(O)C[C@@H](O)CC[C@]4(C)[C@H]3CC[C@]12C)C(C)C (stereo partly specified) : 12.6

Briefly, Ki measured for CC[C@H](C[C@@H](O)[C@@H](C)[C@H]1CCC2C3CC=C4C[C@@H](O)C[C@H](O)[C@]4(C)C3CC[C@@]21C)C(C)C (stereo partly specified) : 7.6

Briefly, Ki measured for CC[C@H](/C=C/[C@@H](C)[C@H]1CC[C@H]2[C@@H]3C=CC4C[C@@H](O)CC[C@]4(C)C3=CC[C@]12C)C(C)C (stereo partly specified) : 20.6

Briefly, Ki measured for CC[C@H](CC[C@@H](C)[C@H]1CC[C@H]2[C@@H]3CCC4=C[C@@H](O)CC[C@]4(C)[C@H]3CC[C@]12C)C(C)C : 16.1

Just for reference, ChEMBL document CHEMBL1149406 is where these values come from.
